Molecular target: T1, hFcRn on hFcRn-expressing HEK293 cells (human, UniProt P55899 24-365; P61769 21-119)
T1 construct: whole, on cells; also called hFcRn HEK293
T1 sequence (P55899 24-365 limits assumed, chain 1 of 2): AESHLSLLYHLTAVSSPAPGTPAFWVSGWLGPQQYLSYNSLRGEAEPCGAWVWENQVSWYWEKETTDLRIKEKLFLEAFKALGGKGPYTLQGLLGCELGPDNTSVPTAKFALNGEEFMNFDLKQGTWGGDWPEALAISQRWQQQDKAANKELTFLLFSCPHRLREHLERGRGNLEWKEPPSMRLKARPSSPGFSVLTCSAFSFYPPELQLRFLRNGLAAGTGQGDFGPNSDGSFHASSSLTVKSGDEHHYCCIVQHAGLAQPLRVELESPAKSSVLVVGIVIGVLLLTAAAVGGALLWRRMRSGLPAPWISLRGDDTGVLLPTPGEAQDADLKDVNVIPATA
T1 sequence (P61769 21-119 limits assumed, chain 2 of 2): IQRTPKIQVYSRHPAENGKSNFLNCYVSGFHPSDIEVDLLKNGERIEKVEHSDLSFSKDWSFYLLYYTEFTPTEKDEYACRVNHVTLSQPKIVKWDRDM
Assay: FACS on hFcRn HEK293 cells, pH 6.0; head prints 'FACS binding (EC50, nM)', taken as blocking of competitor Alexa488-hIgG1 (Example 4.5)
TEST_READOUT: EC50 (nM)
Answer in nM, number only, no unit symbol.

Below are worked cases with known answers.
| BINDER | TEST_READOUT | UNITS_SYMBOL | ASSAY_VALUE |
| --- | --- | --- | --- |
| HL161AN variant No. 4 (LC:N25S, HC:Q82T) (antibody, human IgG1, V domains shown, Variable domains only) VL: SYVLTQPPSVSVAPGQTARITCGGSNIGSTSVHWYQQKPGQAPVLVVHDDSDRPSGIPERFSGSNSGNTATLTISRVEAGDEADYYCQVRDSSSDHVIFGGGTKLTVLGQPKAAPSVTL VH: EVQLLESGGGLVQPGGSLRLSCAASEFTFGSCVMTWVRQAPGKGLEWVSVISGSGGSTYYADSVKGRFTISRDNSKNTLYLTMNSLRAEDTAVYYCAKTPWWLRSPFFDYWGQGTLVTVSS | EC50 | nM | 1.47 |
| HL161AN variant No. 15 (LC:N25Q, HC:Q82T) (antibody, human IgG1, V domains shown, Variable domains only) VL: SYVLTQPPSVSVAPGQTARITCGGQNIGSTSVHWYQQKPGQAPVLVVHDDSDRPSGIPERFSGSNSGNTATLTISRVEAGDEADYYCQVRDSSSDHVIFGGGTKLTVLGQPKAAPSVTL VH: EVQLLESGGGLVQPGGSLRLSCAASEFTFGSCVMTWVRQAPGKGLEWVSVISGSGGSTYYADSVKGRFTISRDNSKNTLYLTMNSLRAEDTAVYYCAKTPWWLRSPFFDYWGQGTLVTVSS | EC50 | nM | 1.1 |
| HL161AN variant No. 18 (LC:N25Q, HC:C32S Q82T) (antibody, human IgG1, V domains shown, Variable domains only) VL: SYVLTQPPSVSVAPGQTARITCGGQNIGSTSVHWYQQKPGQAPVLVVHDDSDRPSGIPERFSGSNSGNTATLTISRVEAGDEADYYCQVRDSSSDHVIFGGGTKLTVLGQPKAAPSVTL VH: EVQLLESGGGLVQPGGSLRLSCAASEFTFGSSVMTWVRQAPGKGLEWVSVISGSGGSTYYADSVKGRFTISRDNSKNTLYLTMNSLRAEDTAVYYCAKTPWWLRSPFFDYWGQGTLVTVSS | EC50 | nM | 1.15 |

[Q] Name the reported EC50 value associated with the binder HL161AN variant No. 21 (LC:N25Q, HC:C32Y Q82T) (antibody, human IgG1, V domains shown, Variable domains only) VL: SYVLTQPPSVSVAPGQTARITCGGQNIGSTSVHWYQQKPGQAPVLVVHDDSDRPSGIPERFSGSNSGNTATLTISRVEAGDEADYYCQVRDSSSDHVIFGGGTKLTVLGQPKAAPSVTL VH: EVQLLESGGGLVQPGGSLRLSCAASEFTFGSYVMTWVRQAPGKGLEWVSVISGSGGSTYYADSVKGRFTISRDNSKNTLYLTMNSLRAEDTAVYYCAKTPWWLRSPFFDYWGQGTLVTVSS
[A] 1.11

[Q] Name the reported EC50 value associated with the binder HL161AN variant No. 20 (LC:N25Q, HC:C32Y Q82S) (antibody, human IgG1, V domains shown, Variable domains only) VL: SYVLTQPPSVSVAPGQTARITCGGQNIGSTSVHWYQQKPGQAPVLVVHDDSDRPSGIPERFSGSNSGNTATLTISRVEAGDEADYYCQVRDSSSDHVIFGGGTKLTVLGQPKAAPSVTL VH: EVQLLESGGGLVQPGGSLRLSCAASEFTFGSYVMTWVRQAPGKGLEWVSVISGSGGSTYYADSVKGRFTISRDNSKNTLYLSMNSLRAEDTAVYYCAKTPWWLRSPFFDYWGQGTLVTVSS
[A] 1.16

[Q] Name the reported EC50 value associated with the binder HL161AN variant No. 16 (LC:N25Q, HC:Q82E) (antibody, human IgG1, V domains shown, Variable domains only) VL: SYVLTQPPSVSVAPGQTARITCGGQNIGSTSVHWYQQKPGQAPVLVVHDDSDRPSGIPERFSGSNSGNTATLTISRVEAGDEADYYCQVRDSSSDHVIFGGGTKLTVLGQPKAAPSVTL VH: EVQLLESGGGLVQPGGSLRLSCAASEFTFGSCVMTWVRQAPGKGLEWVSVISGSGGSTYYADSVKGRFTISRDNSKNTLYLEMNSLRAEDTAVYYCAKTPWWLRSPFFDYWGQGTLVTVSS
[A] 1.74

[Q] Name the reported EC50 value associated with the binder HL161AN variant No. 10 (LC:N25S, HC:C32Y Q82T) (antibody, human IgG1, V domains shown, Variable domains only) VL: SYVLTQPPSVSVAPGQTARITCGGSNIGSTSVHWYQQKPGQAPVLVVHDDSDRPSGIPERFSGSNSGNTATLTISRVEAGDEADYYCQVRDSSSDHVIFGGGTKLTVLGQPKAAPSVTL VH: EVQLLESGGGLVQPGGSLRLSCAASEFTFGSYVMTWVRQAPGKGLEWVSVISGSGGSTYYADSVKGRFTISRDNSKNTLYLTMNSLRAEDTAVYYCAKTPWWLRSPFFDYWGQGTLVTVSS
[A] 1.37

[Q] Name the reported EC50 value associated with the binder HL161AN variant No. 6 (LC:N25S, HC:C32S Q82S) (antibody, human IgG1, V domains shown, Variable domains only) VL: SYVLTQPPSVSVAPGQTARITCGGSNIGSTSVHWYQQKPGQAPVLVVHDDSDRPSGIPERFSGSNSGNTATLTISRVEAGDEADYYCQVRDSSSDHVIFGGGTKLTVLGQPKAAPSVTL VH: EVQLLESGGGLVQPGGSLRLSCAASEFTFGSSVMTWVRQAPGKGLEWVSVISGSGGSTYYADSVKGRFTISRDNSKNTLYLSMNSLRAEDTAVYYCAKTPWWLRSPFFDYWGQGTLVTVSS
[A] 1.31

[Q] Name the reported EC50 value associated with the binder HL161AN variant No. 14 (LC:N25Q, HC:Q82S) (antibody, human IgG1, V domains shown, Variable domains only) VL: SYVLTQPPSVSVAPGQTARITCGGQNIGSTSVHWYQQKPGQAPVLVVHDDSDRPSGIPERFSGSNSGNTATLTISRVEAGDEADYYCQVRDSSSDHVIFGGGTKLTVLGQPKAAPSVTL VH: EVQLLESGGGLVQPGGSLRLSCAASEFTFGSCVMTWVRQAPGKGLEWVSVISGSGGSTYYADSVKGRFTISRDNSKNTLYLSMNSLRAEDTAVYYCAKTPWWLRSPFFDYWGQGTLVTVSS
[A] 1.29

[Q] Name the reported EC50 value associated with the binder HL161AN variant No. 17 (LC:N25Q, HC:C32S Q82S) (antibody, human IgG1, V domains shown, Variable domains only) VL: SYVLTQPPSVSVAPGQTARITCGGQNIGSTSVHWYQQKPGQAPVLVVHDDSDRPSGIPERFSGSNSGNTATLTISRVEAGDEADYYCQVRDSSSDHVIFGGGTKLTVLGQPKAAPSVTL VH: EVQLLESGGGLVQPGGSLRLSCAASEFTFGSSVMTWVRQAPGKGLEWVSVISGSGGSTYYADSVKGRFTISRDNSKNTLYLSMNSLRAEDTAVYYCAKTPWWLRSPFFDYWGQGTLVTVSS
[A] 1.3
